All figures here come from PubChem BioAssay (Tox21).

- systemName: Thyrotropin-releasing hormone receptor (Homo sapiens) (UniProt P34981)
- Sequence (P34981 whole entry, looked up): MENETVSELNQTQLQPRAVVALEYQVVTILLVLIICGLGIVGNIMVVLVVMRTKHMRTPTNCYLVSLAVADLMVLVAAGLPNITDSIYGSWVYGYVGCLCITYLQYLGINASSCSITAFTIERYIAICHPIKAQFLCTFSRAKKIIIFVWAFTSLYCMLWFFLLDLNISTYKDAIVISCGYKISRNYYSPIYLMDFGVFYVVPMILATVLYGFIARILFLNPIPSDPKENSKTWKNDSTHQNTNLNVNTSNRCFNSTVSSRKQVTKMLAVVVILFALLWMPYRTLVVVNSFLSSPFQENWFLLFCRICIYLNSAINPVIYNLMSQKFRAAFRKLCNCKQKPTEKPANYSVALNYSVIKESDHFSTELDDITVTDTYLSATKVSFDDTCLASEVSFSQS
- experiment: qHTS assay to identify small molecule antagonists of the thyrotropin-releasing hormone receptor (TRHR) signaling pathway (AID 1346877)
- reportedConditions: TRHR-HEK293, TRH-induced calcium fluorescence, antagonist mode; series mostly up to 51.3 µM
Activity calls are given as the source filed them. Calls come from the whole dose curve; as a rule, active = well fitted inhibition curve with a large enough effect in the repeat runs (not every such curve was filed as active); inconclusive = weak or mixed curves; inactive = flat fitted curve, though single readings scatter.
Classes used: active, inactive

{"compound": "CCCSP(=O)(OCC)SCCC", "class": "inactive"}
{"compound": "O=[N+]([O-])c1cc(C(F)(F)F)c(Cl)c([N+](=O)[O-])c1Cl", "class": "inactive"}
{"compound": "O=C1C=CC(=O)c2ccccc21", "class": "active"}
{"compound": "Oc1ccc(C2(c3ccc(O)cc3)CCCCC2)cc1", "class": "inactive"}
{"compound": "Cc1ccc(C(=O)Cl)cc1", "class": "inactive"}
{"compound": "CC[C@H](C)[C@H]1O[C@]2(C=C[C@@H]1C)C[C@@H]1C[C@@H](C/C=C(\\C)[C@@H](O[C@H]3C[C@H](OC)[C@@H](O[C@H]4C[C@H](OC)[C@@H](O)[C@H](C)O4)[C@H](C)O3)[C@@H](C)/C=C/C=C3\\CO[C@@H]4[C@H](O)C(C)=C[C@@H](C(=O)O1)[C@]34O)O2", "class": "inactive"}
{"compound": "Nc1ccccc1C(=O)Oc1ccc2ccccc2c1", "class": "inactive"}
{"compound": "CCCCCCCCCBr", "class": "inactive"}
{"compound": "Cc1cccc(OP(=O)(Oc2cccc(C)c2)Oc2cccc(C)c2)c1", "class": "inactive"}
{"compound": "CCSC(C)CC1CC(=O)C(/C(CC)=N/OC/C=C/Cl)=C(O)C1 (stereo not given)", "class": "inactive"}
